# TARGET_DESC: LRRK2 WT (Homo sapiens, UniProt Q5S007)
# Construct: purchased Life Technologies PR8604B
# Sequence (Q5S007 whole entry): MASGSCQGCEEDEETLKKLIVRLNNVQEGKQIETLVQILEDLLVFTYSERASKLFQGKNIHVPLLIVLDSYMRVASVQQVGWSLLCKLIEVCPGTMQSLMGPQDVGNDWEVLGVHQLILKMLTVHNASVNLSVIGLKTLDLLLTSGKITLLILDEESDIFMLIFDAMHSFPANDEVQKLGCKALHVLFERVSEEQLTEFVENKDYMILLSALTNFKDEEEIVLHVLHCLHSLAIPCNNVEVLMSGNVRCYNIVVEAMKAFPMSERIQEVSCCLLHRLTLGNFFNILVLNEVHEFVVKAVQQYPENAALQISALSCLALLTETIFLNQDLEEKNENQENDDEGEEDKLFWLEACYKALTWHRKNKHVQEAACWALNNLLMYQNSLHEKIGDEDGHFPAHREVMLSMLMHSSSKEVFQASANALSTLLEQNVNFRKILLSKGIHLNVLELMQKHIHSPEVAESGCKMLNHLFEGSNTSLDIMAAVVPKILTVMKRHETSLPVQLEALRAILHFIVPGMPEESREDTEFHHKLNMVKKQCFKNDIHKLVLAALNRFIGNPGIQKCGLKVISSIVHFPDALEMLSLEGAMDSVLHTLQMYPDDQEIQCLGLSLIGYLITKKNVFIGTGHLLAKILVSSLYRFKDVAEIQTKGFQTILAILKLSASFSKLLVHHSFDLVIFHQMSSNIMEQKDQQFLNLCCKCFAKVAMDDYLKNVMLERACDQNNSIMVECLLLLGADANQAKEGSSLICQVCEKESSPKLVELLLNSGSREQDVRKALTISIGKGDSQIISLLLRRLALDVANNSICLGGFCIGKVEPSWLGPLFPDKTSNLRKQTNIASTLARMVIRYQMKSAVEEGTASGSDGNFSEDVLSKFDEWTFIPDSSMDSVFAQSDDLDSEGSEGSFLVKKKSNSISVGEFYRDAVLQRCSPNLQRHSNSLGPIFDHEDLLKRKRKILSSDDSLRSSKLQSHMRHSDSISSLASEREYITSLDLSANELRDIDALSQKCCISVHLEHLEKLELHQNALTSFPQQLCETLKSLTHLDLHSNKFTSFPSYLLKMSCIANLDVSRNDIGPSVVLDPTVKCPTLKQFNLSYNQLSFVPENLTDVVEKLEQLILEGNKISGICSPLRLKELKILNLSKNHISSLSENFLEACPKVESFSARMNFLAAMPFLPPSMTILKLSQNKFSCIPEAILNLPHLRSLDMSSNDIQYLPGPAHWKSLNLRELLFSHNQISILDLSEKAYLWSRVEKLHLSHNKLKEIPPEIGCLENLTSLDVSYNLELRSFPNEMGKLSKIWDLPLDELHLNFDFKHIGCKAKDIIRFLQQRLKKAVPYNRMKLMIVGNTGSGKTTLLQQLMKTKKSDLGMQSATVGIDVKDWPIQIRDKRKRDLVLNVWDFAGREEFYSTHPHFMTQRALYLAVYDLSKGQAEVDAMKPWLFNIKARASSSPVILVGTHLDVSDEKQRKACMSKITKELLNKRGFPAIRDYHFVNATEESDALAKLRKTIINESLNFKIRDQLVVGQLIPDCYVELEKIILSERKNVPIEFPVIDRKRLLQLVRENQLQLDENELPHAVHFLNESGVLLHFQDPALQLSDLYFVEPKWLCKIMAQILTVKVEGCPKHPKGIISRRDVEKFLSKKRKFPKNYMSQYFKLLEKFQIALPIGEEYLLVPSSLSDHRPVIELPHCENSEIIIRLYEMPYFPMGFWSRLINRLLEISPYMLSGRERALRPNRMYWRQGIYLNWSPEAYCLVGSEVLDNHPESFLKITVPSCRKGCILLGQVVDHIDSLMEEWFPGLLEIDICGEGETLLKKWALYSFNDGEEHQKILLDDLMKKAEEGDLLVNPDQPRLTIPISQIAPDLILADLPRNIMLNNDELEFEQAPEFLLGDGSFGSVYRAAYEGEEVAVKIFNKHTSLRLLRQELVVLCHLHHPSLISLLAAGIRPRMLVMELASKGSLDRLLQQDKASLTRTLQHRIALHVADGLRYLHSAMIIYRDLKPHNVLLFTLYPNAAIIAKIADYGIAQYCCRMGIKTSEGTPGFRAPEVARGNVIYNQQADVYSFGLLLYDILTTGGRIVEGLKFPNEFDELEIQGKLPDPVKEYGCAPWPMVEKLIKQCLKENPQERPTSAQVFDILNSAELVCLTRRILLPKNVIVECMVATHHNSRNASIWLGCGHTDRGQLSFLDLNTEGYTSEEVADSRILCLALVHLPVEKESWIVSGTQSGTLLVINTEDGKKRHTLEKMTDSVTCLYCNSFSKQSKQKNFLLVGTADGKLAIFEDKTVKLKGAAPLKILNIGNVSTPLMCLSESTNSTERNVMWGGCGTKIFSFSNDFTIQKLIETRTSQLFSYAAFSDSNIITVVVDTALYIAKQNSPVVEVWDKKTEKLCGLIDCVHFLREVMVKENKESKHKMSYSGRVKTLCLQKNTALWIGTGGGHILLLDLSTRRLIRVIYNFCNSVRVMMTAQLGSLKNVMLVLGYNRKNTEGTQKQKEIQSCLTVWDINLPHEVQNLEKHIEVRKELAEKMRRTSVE
# EXPERIMENTAL_PROTOCOL: LRRK2 Kinase Activity Assay (LanthaScreen TR-FRET), wild type
# Assay type: biochemical
# EXPERIMENTAL_CONTEXT: recombinant wild type LRRK2, 25 μM ATP, 400 nM LRRKtide, 60 min; class symbols
pIC50: −log10 of the molar value.
Recorded pIC50 for the following molecules

[ask] Give its pIC50 value. Item: Cc1n[nH]c2ccc(N[C@H]3CCc4ccc(C#N)cc43)cc12 (single isomer, unassigned) [Example 130, enantiomer 1]
[reply] 5.00 to 6.00

Others:
[ask] Give its pIC50 value. Item: N#Cc1ccc2c(c1)CC[C@H]2Oc1ccc2[nH]nc(-c3cnco3)c2n1 (single isomer, unassigned) [Example 31, enantiomer 1]
[reply] > 7.00

[ask] Give its pIC50 value. Item: CS(=O)(=O)c1ccc(-c2n[nH]c3ccc(N[C@H]4CCCc5cc(C#N)ccc54)cc23)cc1 (single isomer, unassigned)
[reply] > 7.00

[ask] Give its pIC50 value. Item: COc1nc2c(c(C)c1C#N)CCC[C@@H]2Nc1ccc2[nH]nc(-c3cnco3)c2c1 (single isomer, unassigned) [Example 165, enantiomer 2]
[reply] > 7.00

[ask] Give its pIC50 value. Item: Cc1c(C#N)ccc2c1CC[C@@H]2Oc1ccc2[nH]nc(-c3cnco3)c2c1 (single isomer, unassigned) [Example 22, enantiomer 1]
[reply] > 7.00

[ask] Give its pIC50 value. Item: N#Cc1ccc2c(c1)CCC[C@@H]2Nc1ccc2[nH]nc(-c3cncs3)c2c1 (single isomer, unassigned)
[reply] > 7.00
